Each entry below carries its recorded GI50.
# Tested on: KM-20L2
# Assay Details: NCI tumour cell line growth inhibition, 48 h
Calls of active or inactive are those of the source. No stated cut-off is given here; in the data, active = GI50 up to about 1.1 µM and inactive = higher.

Examples from the recorded data:
>>> reported_measurement("Cn1c(O)c(C(=O)Nc2cccs2)c(=O)[nH]c1=S")
"19.7 µM (inactive)"
>>> reported_measurement("NC(CCSCCF)C(=O)O (stereo unspecified)")
"> 100 µM (inactive)"
>>> reported_measurement("Cc1ccc(NC(=O)C2C3CCC(O3)C2C(=O)O)cc1 (stereo unspecified)")
"> 26.6 µM (inactive)"
>>> reported_measurement("COc1cc(-c2cc(=O)c3ccccc3o2)ccc1N")
"49.5 µM (inactive)"
>>> reported_measurement("OC1[C@H]([C@H]2CCCC[C@@H]2O)CCC[C@@H]1[C@@H]1CCCC[C@H]1O (stereo partly specified)")
"> 100 µM (inactive)"

Switching to the query record.
Lab book: GI50 of Cc1cc2c(C)nn(Cc3ccc(Cl)cc3)c2c(C#N)c1C noted as > 100 µM (inactive)
